# tested-target: Casein kinase I isoform delta (Homo sapiens) (UniProt P48730)
# Sequence (P48730 whole entry, looked up, canonical isoform): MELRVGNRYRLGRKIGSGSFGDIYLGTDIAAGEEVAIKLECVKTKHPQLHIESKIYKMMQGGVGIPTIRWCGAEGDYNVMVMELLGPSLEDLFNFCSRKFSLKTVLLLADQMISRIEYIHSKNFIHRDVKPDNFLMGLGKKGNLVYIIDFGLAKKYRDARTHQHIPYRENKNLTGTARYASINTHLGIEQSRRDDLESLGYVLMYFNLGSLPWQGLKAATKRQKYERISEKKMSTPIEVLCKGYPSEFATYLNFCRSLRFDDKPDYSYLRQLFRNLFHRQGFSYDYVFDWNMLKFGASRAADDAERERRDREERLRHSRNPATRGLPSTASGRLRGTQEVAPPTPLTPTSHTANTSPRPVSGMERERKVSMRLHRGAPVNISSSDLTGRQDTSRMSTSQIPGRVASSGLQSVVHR
# study-conditions: Compound concentration 20.0 uM
# Description: Thermal Shift Assay. Domain: start/stop: M1-K294
Residues, ends and D or L forms follow the SMILES beside them. *: point of attachment. Cbz = O=C(OCc1ccccc1)*; CH2F = FC*
With a cut-off of -0.2 °C, any ΔTm strictly below it is called rule met; any ΔTm meeting it or above is called rule not met.

INSERT INTO results (compound, class_assignment) VALUES
  ('COC(=O)CC(NC(=O)C(C)NC(=O)C(NC(=O)C(CC(=O)OC)NC(=O)C(NC(=O)OCc1ccccc1)C(C)C)C(C)C)C(=O)CF (stereo not given) (Cbz-VD(OMe)VAD(OMe)-CH2F; configuration not given here)', 'rule met'),
  ('Cc1c(CN2CCC(Nc3ncnc4sc(CC(F)(F)F)cc34)CC2)ccc2[nH]c(C#N)cc12', 'rule not met'),
  ('CC(=O)OCCN1C(=O)c2c(C)nc3ccc(S(=O)(=O)N4CCOCC4)cc3c2C1=O', 'rule not met'),
  ('CC1(C)CC[C@]2(C(=O)O)CC[C@]3(C)C(=CC[C@@H]4[C@@]5(C)C=C(O)C(=O)C(C)(C)[C@@H]5CC[C@]43C)[C@@H]2C1', 'rule met'),
  ('CCC(CC)(NC(=O)C(C)C)C(=O)N[C@@H](CCCNC(=N)N)C(=O)NC1(C(=O)NC(c2ccc(F)cc2)c2ccc(F)cc2)CCCC1', 'rule not met');

Where do these numbers come from? They come from ChEMBL document CHEMBL5724796.
